I'd be grateful if you could share measured z-score for these entries.
experiment.summary: PSAC antagonists in infected red cells, primary screen, cell-based, P. falciparum Indochina, OD700, 18 h (AID 1157)
measurement.conditions: P. falciparum Indochina infected erythrocytes, osmotic lysis OD700, 18 h; higher = more signal, called active from +8 up or from −8 down
Provide a numeric answer; units are not to be included.

// sample CCCC=C(CCC)[C@@H](NC(=O)c1ccccc1)c1ccccc1 , its z-score was 0.812

// sample COCCOC(=O)N1C(=O)[C@@]2(c3cc(C#CCCO)ccc31)[C@H](C(=O)N1CCCCCCC1)[C@H]1C(=O)O[C@H](c3ccccc3)[C@H](c3ccccc3)N1[C@@H]2c1ccc(O)cc1 , its z-score was -1.32

// sample CCCN1C(=O)[C@@]2(CCS(=O)(=O)c3ccccc3)N=C(c3ccc(OCCCO)cc3)O[C@H]2c2ccccc21 , its z-score was 3.19

// sample CC(C)N1CC=CC23O[C@@H]4/C=C\CCCOC(=O)C4[C@H]2C(=O)N(CCCCCO)[C@@H]3C1=O (some centres not stated) , its z-score was -0.258

// sample CC(C)=C1C(=O)C(c2ccccc2)=C2CN3C(=O)N(CCc4ccccc4)C(=O)[C@]3(Cc3ccccc3)[C@H]21 , its z-score was 0.913

// sample COc1ccc([Si](C)(C)[C@@H]2[C@@H](CCO)O[C@]3(C(=O)N(Cc4ccc(NC(=O)[C@H](C)O)cc4)c4ccccc43)[C@H]2C)cc1 , its z-score was 2.46

// sample COCCOC(=O)N1C(=O)[C@@]2(c3cc(C#CCNC(N)=O)ccc31)[C@H](c1ccc(OCCO)cc1)N1[C@H](c3ccccc3)[C@H](c3ccccc3)OC(=O)[C@H]1[C@@H]2C(=O)N1CCCCCCC1 , its z-score was -0.737

// sample COCCOC(=O)N1C(=O)[C@@]2(c3cc(C#CC4(O)CCCCCC4)ccc31)[C@H](C(=O)N1CCCCCCC1)[C@H]1C(=O)O[C@H](c3ccccc3)[C@H](c3ccccc3)N1[C@@H]2c1ccc(O)cc1 , its z-score was -0.763

// sample COc1ccc([C@H]2C[C@H]3C(Br)=C[C@]2(OC)C(=O)[C@]32CO2)cc1 , its z-score was -0.21

// sample [N-]=[N+]=NCc1ccccc1C[C@]1(C(N)=O)N=C(c2ccc(OCCCO)cc2)O[C@H]1c1ccccc1CN=[N+]=[N-] , its z-score was 2.86

// sample CO[C@H]1O[C@H](CO)[C@@H](OC(=O)Nc2ccccc2)[C@H](OC(=O)Nc2ccc3c(c2)OCO3)[C@@H]1OC(=O)Nc1ccc2c(c1)OCO2 , its z-score was -2

// sample C[C@@H]1CC[C@H]2C(=O)N3[C@@H](CC[C@@H](C)[C@@H]3c3cccc(N4CCOCC4)c3)C(=O)N2[C@H]1c1cccc(N2CCOCC2)c1 , its z-score was 0.197

// sample COc1ccc([Si](C)(C)[C@@H]2[C@@H](CCO)O[C@]3(C(=O)N(Cc4ccccc4)c4ccccc43)[C@H]2C)cc1 , its z-score was 0.353

// sample O=C(CS)NCCCCCNC(=O)[C@H]1C[C@H]2C(=O)N[C@@H](Cc3ccccc3)C(=O)N2[C@H]1c1ccc(O)cc1 , its z-score was -1.95

// sample COc1cc(Cc2cc3c(c(CCc4ccccc4)n2)[Si](C(C)C)(C(C)C)OC3)cc(OC)c1OC , its z-score was -0.232

// sample COCCOC(=O)N1C(=O)[C@@]2(c3cc(C#CCNC(N)=O)ccc31)[C@H](C(=O)N1CCCCCCC1)[C@H]1C(=O)O[C@H](c3ccccc3)[C@H](c3ccccc3)N1[C@@H]2c1ccccc1OCCO , its z-score was 0.927

// sample Cc1ccc(S[C@]2(C(=O)O)CC(=O)N(Cc3cc(C(F)(F)F)cc(C(F)(F)F)c3)[C@@H]2c2ccc(CO)cc2I)cc1 , its z-score was 0.522
